study target: T1, Human PD-1 expressed on CHO-K1 cells (CHO-K1/hPD-1) (human, UniProt Q15116 25-288)
T1 construct: whole, on cells; also called CHO-K1 cells overexpressing human PD-1
T1 sequence (Q15116 25-288): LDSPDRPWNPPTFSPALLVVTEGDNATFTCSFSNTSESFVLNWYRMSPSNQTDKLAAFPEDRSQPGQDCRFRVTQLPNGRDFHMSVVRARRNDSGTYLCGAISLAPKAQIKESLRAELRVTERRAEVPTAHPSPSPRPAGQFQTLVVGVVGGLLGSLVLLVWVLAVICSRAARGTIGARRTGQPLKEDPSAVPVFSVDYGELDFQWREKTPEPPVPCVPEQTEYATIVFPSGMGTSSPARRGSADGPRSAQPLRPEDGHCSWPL
test name: FACS, CHO-K1/hPD-1 cells
Could you please report measured pEC50 for the items listed next?
Answers are plain numbers, as −log10 of the molar value.

{"columns": ["binder", "measurement type", "value reported"],
 "data": [
  ["PR005090 (VHH, Monovalent single-domain (VH) antibody with Flag-6His tag) VHH: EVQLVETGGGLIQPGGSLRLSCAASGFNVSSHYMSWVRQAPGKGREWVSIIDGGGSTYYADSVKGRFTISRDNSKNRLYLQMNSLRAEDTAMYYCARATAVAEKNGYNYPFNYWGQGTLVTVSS", "pEC50", 7.31],
  ["PR005145 (VHH, Monovalent single-domain (VH) variant of PR002481 with Flag-6His tag) VHH: EVQLVETGGGLIQPGGSLRLSCAASGFNVSFYYMSWVRQAPGKGREWVSIIDKGGSTYYGDSVKGRFTISRDNSKNRLYLQMNSLRAEDTAMYYCARATEVREKNGYNYPFNYWGQGTLVTVSS", "pEC50", 7.74],
  ["PR000673 (antibody, human IgG4 S228P, kappa, V domains shown, Fully human recombinant H2L2 antibody, human IgG4, kappa light chain; also called 4004_10H9A12) VH: QVQLVESGGGVVQPGRSLRLSCAASGFIFSNYGMHWVRQAPGKGLEWVAVIWYDGSKKYYGDSVKGRFTISRDNSKNTLYLQMNSLRDEDTAVYFCARNDDYWGQGTLVTVSS VL: EIVLTQSPATLSFSPGERATLSCRASQSVSSDLAWYQQKPGQAPSLLIYDASNRATGIPARFSGSGSGTDFTLTISSLEPEDFAVYYCHQRNNWPLTFGGGTKVEIKR", "pEC50", 8.32],
  ["PR005148 (VHH, Monovalent single-domain (VH) variant of PR002481 with Flag-6His tag) VHH: EVQLVETGGGLIQPGGSLRLSCAASGFNVSSHYMSWVRQAPGKGREWVSIIDKAGSGYYAASVKGRFTISRDNSKNRLYLQMNSLRAEDTAMYYCARATEVREKNGYNYPFNYWGQGTLVTVSS", "pEC50", 7.56],
  ["PR002474 (antibody, human IgG1, V domains shown, Heavy-chain-only antibody (HCAb), human IgG1 Fc; two heavy chains, no light chain; also called R4004P547D3) VH: EVQLVETGGGLIQPGGSLRLSCAASGFNVSSHYMSWVRQAPGKGLEWVSIIHSGGSTYYADSVKGRFTISRDNSKNRLYLQMNSLRADDTAVYYCARATAVAEKNGYNYPFNYWGQGTLVTVSS", "pEC50", 7.86]
]}

Need pEC50 for each of these binders.
1. PR002476 (antibody, human IgG1, V domains shown, Heavy-chain-only antibody (HCAb), human IgG1 Fc; two heavy chains, no light chain; also called R4004P547H11) VH: EVQLVETGGGLIQPGGSLRLSCAASGFNVSSHYMSWVRQAPGKGLEWVSIIHSGGSTYYADSVKGRFTISRDNSKNRLYLQMNSLRAEDTAVYYCARATAVAEKNGYNYPFNYWGQGTLVTVSS
2. PR005142 (VHH, Monovalent single-domain (VH) variant of PR002481 with Flag-6His tag) VHH: EVQLVETGGGLIQPGGSLRLSCAASGFNVSFYYMSWVRQAPGKGREWVSIIDKGGSGYYAASVKGRFTISRDNSKNRLYLQMNSLRAEDTAMYYCARATEVREKNGYNYPFNYWGQGTLVTVSS

Resp:
[7.90, 7.15]

Where these numbers come from: patent US20240034792A1
